Where these numbers come from: paper PMC12502093

molecular target: S. aureus topoisomerase IV (Staphylococcus aureus, UniProt P0C1S7); experiment: S. aureus topoisomerase IV ATPase assay; type: biochemical
Sequence (P0C1S7 whole entry): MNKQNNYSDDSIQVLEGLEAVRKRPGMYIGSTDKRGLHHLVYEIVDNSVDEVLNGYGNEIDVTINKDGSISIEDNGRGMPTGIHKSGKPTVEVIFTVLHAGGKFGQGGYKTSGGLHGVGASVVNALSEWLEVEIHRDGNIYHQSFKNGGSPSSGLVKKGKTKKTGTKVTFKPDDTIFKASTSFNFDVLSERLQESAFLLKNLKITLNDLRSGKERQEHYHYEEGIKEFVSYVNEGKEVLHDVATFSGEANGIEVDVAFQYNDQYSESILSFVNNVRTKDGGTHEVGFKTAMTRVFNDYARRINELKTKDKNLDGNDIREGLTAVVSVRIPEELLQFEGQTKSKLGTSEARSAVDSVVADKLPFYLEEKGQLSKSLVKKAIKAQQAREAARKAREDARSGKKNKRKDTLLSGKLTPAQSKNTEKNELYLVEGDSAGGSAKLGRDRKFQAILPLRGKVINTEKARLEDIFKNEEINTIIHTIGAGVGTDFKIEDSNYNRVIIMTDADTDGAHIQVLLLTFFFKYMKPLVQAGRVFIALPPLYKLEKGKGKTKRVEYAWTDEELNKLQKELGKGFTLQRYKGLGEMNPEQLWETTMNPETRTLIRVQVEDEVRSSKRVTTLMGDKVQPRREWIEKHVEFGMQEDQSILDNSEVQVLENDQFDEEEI
Sequence (P0C1U9 whole entry partner): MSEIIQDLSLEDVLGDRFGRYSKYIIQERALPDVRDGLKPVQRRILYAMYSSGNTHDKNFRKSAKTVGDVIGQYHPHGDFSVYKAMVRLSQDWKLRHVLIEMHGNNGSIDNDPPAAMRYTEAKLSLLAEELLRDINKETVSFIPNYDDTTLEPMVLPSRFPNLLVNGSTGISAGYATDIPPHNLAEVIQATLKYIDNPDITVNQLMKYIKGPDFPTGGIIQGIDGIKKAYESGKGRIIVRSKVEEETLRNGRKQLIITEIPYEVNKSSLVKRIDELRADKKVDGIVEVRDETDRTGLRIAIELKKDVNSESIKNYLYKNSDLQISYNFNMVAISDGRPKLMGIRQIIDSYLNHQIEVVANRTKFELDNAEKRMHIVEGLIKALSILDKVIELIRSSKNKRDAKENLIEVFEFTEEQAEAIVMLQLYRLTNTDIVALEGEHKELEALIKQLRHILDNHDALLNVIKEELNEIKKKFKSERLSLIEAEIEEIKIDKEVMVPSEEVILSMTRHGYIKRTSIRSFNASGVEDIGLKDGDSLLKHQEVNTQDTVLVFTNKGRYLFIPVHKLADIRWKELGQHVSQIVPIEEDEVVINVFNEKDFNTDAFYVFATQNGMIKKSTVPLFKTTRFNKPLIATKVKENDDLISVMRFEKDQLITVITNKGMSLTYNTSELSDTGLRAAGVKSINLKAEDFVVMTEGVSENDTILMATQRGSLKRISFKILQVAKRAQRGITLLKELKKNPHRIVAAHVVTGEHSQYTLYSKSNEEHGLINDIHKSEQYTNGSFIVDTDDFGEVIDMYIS
outcome.measure: IC50 (µM)
Value expressed in µM; do not type the unit.

Request: // fetch IC50 given entry `CC(=O)c1ccc2cc(S(=O)(=O)Nc3ccc(Br)cc3)ccc2c1`
Result: 5.96

---

biological target: S. aureus DNA gyrase (Staphylococcus aureus, UniProt P0A0K8); experiment: S. aureus DNA gyrase ATPase assay; type: biochemical
Sequence (P0A0K8 whole entry): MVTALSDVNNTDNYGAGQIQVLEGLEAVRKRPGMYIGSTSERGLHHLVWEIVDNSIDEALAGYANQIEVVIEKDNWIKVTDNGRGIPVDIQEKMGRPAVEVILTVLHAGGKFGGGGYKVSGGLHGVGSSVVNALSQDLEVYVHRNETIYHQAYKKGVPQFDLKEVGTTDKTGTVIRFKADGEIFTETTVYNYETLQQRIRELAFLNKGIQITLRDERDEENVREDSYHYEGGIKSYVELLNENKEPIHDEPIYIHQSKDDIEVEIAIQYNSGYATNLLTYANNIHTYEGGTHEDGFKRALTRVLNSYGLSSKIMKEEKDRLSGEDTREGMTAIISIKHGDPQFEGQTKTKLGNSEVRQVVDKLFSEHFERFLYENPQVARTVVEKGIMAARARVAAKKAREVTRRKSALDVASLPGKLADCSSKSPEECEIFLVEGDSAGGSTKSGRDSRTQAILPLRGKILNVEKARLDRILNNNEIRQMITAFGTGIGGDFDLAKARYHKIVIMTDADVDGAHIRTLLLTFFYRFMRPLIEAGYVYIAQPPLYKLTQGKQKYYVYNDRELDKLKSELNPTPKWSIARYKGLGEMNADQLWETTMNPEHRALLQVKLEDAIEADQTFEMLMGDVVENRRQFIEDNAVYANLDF
Sequence (P20831 whole entry partner): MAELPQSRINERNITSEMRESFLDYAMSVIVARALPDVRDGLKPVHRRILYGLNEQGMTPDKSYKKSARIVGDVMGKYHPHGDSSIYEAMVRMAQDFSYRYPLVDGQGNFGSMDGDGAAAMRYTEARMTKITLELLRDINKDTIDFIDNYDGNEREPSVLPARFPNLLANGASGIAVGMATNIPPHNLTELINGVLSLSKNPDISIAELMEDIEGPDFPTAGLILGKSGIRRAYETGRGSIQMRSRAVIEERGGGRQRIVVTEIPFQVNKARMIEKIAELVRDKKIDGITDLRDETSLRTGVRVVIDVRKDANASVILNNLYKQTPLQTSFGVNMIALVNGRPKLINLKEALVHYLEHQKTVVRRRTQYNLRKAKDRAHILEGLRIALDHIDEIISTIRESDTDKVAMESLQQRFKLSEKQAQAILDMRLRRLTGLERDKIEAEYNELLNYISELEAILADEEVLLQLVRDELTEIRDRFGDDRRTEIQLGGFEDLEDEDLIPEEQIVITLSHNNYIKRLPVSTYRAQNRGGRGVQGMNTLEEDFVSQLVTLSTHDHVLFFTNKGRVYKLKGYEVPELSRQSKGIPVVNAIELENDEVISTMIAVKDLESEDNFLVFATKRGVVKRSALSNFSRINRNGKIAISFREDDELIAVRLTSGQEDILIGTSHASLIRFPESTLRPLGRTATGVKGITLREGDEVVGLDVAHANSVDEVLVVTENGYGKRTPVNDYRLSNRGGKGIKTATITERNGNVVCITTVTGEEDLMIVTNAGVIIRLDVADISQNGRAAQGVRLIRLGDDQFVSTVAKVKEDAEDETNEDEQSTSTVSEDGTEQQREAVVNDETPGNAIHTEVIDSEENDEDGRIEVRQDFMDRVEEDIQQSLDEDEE
outcome.measure: IC50 (µM)
All answers are understood in µM, so give the number only.

Request: Consider the compound CC(=O)c1ccc2cc(S(=O)(=O)Nc3ccc(Br)cc3)ccc2c1 [Compound 5e] . State its measured IC50.
Result: 3.04
